Data provenance: Sander's compilation of Henry's law constants (doi:10.1021/es00099a010)

ASSAY NAME: Henry solubility constant Hcp at 298.15 K (mol/(m3 Pa))
EXPERIMENTAL CONTEXT: reference: Atlas et al. (1982)
Reported Henry solubility constant Hcp values are given for each entry in this list.

- COMPOUND: "ClC(Cl)=C(c1ccc(Cl)cc1)c1ccc(Cl)cc1"
  Henry solubility constant Hcp: 0.0081
- COMPOUND: "Clc1ccc(-c2ccc(Cl)c(Cl)c2Cl)cc1"
  Henry solubility constant Hcp: 0.012
- COMPOUND: "Clc1ccc(Cl)c(-c2cccc(Cl)c2Cl)c1"
  Henry solubility constant Hcp: 0.013
- COMPOUND: "Clc1ccc(-c2cc(Cl)ccc2Cl)cc1"
  Henry solubility constant Hcp: 0.011
- COMPOUND: "Clc1ccc(Cl)c(-c2cc(Cl)ccc2Cl)c1"
  Henry solubility constant Hcp: 0.011
- COMPOUND: "Clc1cc(Cl)c(-c2ccccc2Cl)c(Cl)c1"
  Henry solubility constant Hcp: 0.013
- COMPOUND: "Clc1ccccc1-c1cccc(Cl)c1Cl"
  Henry solubility constant Hcp: 0.012
- COMPOUND: "ClC1=C(Cl)[C@]2(Cl)[C@H]3[C@H](Cl)[C@@H](Cl)C[C@H]3[C@@]1(Cl)C2(Cl)Cl [trans-chlordane]"
  Henry solubility constant Hcp: 0.0074
- COMPOUND: "Clc1ccc(-c2ccc(Cl)c(Cl)c2)cc1"
  Henry solubility constant Hcp: 0.012
- COMPOUND: "ClC1C(Cl)C(Cl)C(Cl)C(Cl)C1Cl (centres undefined)"
  Henry solubility constant Hcp: 0.42
- COMPOUND: "ClC1=C(Cl)[C@]2(Cl)[C@@H]3[C@@H](Cl)[C@@H](Cl)C[C@@H]3[C@@]1(Cl)C2(Cl)Cl [cis-chlordane]"
  Henry solubility constant Hcp: 0.011
- COMPOUND: "Clc1ccc(Cl)c(-c2ccccc2Cl)c1"
  Henry solubility constant Hcp: 0.0099
- COMPOUND: "Clc1ccc(-c2ccccc2Cl)cc1"
  Henry solubility constant Hcp: 0.01
- COMPOUND: "Clc1cccc(-c2cccc(Cl)c2Cl)c1"
  Henry solubility constant Hcp: 0.012
